Numbers sourced from patent EP4578855A1.

biological target: PHD2 enzyme (Homo sapiens); construct: purchased Active motif; test: Detection of PHD2 enzyme activity inhibition (FITC-HIF1α tracer, mP read-out); assay type: biochemical; settings: test concentration from 10 µM, diluted 3 times into 10 concentrations; read-out: IC50
Sequence (Q9GZT9 whole entry, species assumed): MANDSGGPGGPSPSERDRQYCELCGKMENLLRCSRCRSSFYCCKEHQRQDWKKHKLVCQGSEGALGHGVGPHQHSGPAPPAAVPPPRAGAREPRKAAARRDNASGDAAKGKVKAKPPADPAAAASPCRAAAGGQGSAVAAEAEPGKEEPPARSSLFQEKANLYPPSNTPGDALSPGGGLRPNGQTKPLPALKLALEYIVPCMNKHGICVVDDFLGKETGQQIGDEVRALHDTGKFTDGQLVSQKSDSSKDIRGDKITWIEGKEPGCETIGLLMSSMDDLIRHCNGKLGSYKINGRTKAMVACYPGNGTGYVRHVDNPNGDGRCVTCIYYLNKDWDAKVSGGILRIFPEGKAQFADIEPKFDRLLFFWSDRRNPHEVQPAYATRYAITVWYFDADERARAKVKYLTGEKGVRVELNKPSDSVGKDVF
pIC50: −log10 of the molar value.
Result Type: pIC50

# Entry Smiles, Result Type, Number
data = [
    ("O=C(O)CNC(=O)c1c(O)cc(C#Cc2ccccc2)n2ncnc12", "pIC50", 7.33),
    ("Cc1ccc(Oc2cc(O)c(C(=O)NCC(=O)O)c3ncnn23)cc1", "pIC50", 7.36),
    ("O=C(O)CNC(=O)c1c(O)cc(Oc2cccc(Cl)c2)n2ncnc12", "pIC50", 7.52),
    ("O=C(O)CNC(=O)c1c(O)cc(Oc2ccccc2Cl)n2ncnc12", "pIC50", 7.46),
    ("COc1ccc(Oc2cc(O)c(C(=O)NCC(=O)O)c3ncnn23)cc1", "pIC50", 7.32),
    ("O=C(O)CNC(=O)c1c(O)cc(Oc2ccc(Cl)cc2)n2ncnc12", "pIC50", 7.48),
    ("CCCOc1cc(O)c(C(=O)NCC(=O)O)c2ncnn12", "pIC50", 7.47),
    ("O=C(O)CNC(=O)c1c(O)cc(C=Cc2ccccc2)n2ncnc12", "pIC50", 7.50),
]
